# TEST_METHOD_NOTES: NCI Yeast Anticancer Drug Screen. Data for the bub3 strain (AID 167)
# SETTINGS: S. cerevisiae bub3 mutant strain, at 50.0 µM (retest, dose inferred, filed as 5.0)
Compounds without any hit were thinned out: in the full panel of roughly 79,000, 15% have a hit. Calls of active or inactive are those of the source. Cut-off read from the data, not from the text of the source: active = growth inhibition above about 70%; inactive = the rest.
Outcomes: active, inactive

{"columns": ["COMPOUND", "LABEL"],
 "data": [
  ["C=C1C(C2(C)C(OC(C)=O)CC(=O)OC(C)(COC(C)=O)C2CC(=O)OC)C(OC=O)C(OC(=O)C(O)C(C)CC)C2(C)C(c3ccoc3)CC(=O)C12O (stereo not drawn)", "inactive"],
  ["Cc1c(-c2ccccc2)sc(/N=C/c2cc(Br)cc(Br)c2O)c1C#N", "active"],
  ["CCOC(=O)C1=C(N)N(S(=O)(=O)c2ccc(C)cc2)CCC(C(=O)OC)=C1", "inactive"],
  ["Cc1nnc(NS(=O)(=O)c2ccc(N=Nc3cc(N=Nc4ccc(S(=O)(=O)Nc5nnc(C)s5)cc4)c4c(NC(=O)C(Cl)Cl)cccc4c3OC(=O)C(Cl)Cl)cc2)s1 (tested in a mixture with another compound)", "inactive"],
  ["N/C(=N\\N=C/c1ccc(O)c(O)c1O)NO", "inactive"],
  ["CCCCCCCCCCCC(C)N (stereo not drawn)", "active"],
  ["Cc1cc(C(O)(c2cc(C)c(O)c(C(=O)O)c2)c2cc(C)c(O)c(C(=O)O)c2)cc(C(=O)O)c1O", "inactive"],
  ["CCCCCCCCCCCCCCCCCC[N+](C)(C)Cc1ccc(C[N+](C)(C)CCCCCCCCCCCCCCCCCC)cc1", "inactive"]
]}
